- System: HeLa
- Assay type: cell-based
- Condition Info: read-out: Cell cytotoxicity IC50; HeLa cells
Experimental Endpoint: pIC50
In simple prose, pIC50 is minus the logarithm base ten of a concentration in moles per litre.

Input: Looking for the measured pIC50 of `C/C=C(\C)C(=O)O[C@@H]1[C@@H](O)[C@@H]2O[C@H]3[C@H](O[C@@H](CCCCC)CCCCCCC(=O)CCC(=O)OC[C@@H](O2)[C@H]1OC(=O)/C=C/c1ccccc1)O[C@H](C)[C@H](OC(C)=O)[C@@H]3O` , can you help?
Output: 7.79
